tested-target: SARM1 (Homo sapiens, UniProt Q6SZW1)
Construct: made in house; host or cells: NRK1-HEK293T cells, transiently transfected; clarified lysate used unpurified
Sequence (Q6SZW1 with tags, fused parts or gaps): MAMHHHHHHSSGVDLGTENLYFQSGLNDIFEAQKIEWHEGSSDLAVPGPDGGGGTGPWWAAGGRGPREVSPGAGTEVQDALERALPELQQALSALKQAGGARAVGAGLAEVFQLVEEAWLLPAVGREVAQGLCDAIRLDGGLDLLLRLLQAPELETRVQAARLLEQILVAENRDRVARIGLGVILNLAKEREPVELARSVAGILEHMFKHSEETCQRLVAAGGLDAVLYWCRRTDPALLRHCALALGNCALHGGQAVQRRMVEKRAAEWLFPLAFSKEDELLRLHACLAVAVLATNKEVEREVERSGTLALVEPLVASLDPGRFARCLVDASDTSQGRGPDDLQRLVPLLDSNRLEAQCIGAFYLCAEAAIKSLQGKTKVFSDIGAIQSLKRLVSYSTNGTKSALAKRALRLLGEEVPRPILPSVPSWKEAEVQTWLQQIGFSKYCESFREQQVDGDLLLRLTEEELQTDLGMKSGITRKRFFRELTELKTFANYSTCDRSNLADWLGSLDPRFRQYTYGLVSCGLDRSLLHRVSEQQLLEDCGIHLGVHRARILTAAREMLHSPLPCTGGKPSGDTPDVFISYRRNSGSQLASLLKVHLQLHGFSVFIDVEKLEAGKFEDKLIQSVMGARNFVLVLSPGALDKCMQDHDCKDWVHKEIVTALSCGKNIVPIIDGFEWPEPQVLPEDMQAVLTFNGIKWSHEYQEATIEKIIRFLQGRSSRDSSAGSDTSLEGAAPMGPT
measurement-protocol: ARM-SAM-TIR SARM1 IC50 assay (NADase activity, NAD+ cleavage)
Format: biochemical
conditions: ARM-SAM-TIR lysate 5 μg/mL from NRK1-HEK293T cells; 2 h pre-incubation; 5 μM NAD+; 2 hr room temperature; NAD+ and ADPR by RapidFire MS; read-out: SARM1 IC50
pIC50: −log10 of the molar value.
recorded-endpoint: pIC50

> print(dat)
                                   molecule                         tested.target  recorded.endpoint  reported.value
1                    COc1cncc(NCC2CCOCC2)n1  SARM1 (Homo sapiens, UniProt Q6SZW1)              pIC50          < 4.52
2          Cn1cc(CNc2cncc(OCC(F)(F)F)n2)cn1  SARM1 (Homo sapiens, UniProt Q6SZW1)              pIC50          < 4.52
3             COc1cc(NCc2cccnc2)[nH]c(=O)c1  SARM1 (Homo sapiens, UniProt Q6SZW1)              pIC50          < 4.52
4          COc1cncc(NCc2cnn(-c3ccccc3)c2)n1  SARM1 (Homo sapiens, UniProt Q6SZW1)              pIC50    4.82 to 5.30
5  COc1cncc(NCC(O)c2cccc(C(F)(F)F)c2)n1 (stereo not drawn)  SARM1 (Homo sapiens, UniProt Q6SZW1)              pIC50    4.82 to 5.30
6  CCN1CCN(c2ncc(CNc3cncc(OC)n3)cn2)C(C)C1 (stereo not drawn)  SARM1 (Homo sapiens, UniProt Q6SZW1)              pIC50    4.82 to 5.30
